These data points were gathered from patent US20040044037A1.

The following compounds are listed with their measured pKi values.
# assayed-target: human D2S dopamine (hD2S-DA) receptors (Homo sapiens)
# Construct: purchased Receptor Biology, Inc. (Beltsville, Md.); host or cells: A9 L cells
# method-summary: Competition radioligand binding, hD2S dopamine
# test-parameters: [3H]Spiperone; membranes of A9 L cells; read-out: Ki D2
Interpret pKi as the negative base-10 log of the concentration measured in mol/L.

[in] What measured pKi goes with CN1CCCC1CCNC(=O)NC(=N)NCc1cccc2ccccc12 (stereo not drawn) [Example 13] ?
[out] 5.72

[in] pKi lookup needed for N=C(NCc1cccc2ccccc12)NC(=O)NCc1ccc(F)cc1 [Example 32] , thanks.
[out] 6.11

[in] # input compound: COc1ccc(CN2CCC(CNC(=O)NC(=N)NCc3cccc4ccccc34)CC2)cc1C [Example 68] ; wanted: its pKi
[out] 5.81

[in] State the recorded pKi for this entry: N=C(NCc1cccc2ccccc12)NC(=O)NC1CCCCC1O (stereo not drawn) [Example 14]
[out] 6.34

[in] Any idea what pKi was measured for N=C(NCc1cccc2ccccc12)NC(=O)NCC1CCN(Cc2cccc(C(F)(F)F)c2)CC1 [Example 57] ?
[out] 5.80

Others:
[in] Which pKi reading was recorded for the compound N=C(NCc1cccc2ccccc12)NC(=O)N[C@H]1c2ccccc2C[C@H]1O [Example 42] ?
[out] 5.90

[in] Fill blank: measured pKi of the compound COc1ccc(C(C)=O)cc1CN1CCC(CNC(=O)NC(=N)NCc2cccc3ccccc23)CC1 [Example 63] is ____.
[out] 5.75

[in] Given N=C(NCc1cccc2ccccc12)NC(=O)NCCCn1ccnc1 [Example 11] , state its recorded pKi.
[out] 6.04

[in] Please report the recorded pKi for COc1ccc(CN2CCC(CNC(=O)NC(=N)NCc3cccc4ccccc34)CC2)cc1 [Example 71] .
[out] 5.83

----------
Each item that follows carries a reported pKi.
# assayed-target: human D2S dopamine (hD2S-DA) receptors (Homo sapiens, UniProt P14416)
# Construct: purchased Receptor Biology, Inc. (Beltsville, Md.); host or cells: A9 L cells
# Sequence (P14416 1-414 isoform P14416-2): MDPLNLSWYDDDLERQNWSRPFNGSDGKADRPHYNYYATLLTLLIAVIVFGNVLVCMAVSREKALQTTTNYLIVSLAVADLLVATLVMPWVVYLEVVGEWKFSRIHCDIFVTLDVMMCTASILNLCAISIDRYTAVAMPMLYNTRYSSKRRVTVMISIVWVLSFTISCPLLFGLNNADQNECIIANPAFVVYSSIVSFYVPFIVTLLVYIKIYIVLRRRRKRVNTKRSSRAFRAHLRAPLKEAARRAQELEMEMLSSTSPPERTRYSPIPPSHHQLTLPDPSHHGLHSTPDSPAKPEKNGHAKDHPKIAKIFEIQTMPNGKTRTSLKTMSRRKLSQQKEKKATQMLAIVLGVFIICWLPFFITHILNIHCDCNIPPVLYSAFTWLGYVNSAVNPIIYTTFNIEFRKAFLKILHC
# method-summary: Competition radioligand binding, hD2S dopamine
pKi: −log10 of the molar value.

[in] Which pKi reading was recorded for the compound N=C(NCc1c(Cl)cccc1Oc1ccccc1)NC(=O)N1CCC(Nc2ccccc2)CC1 ?
[out] < 5.60

[in] Any idea what pKi was measured for CCOc1ccccc1CNC(=N)NC(=O)N1CCC(Nc2ccccc2)CC1 ?
[out] < 5.60

Others:
[in] Report pKi for N=C(NCc1ccccc1-c1ccccc1)NC(=O)N1CCC(Nc2ccccc2)CC1 please.
[out] < 5.60

----------
# assayed-target: human D2S dopamine (hD2S-DA) receptors (Homo sapiens, UniProt P14416)
# Construct: purchased Receptor Biology, Inc. (Beltsville, Md.); host or cells: A9 L cells
# method-summary: Competition radioligand binding, hD2S dopamine
# test-parameters: [3H]Spiperone; membranes of A9 L cells; read-out: Ki D2
Reported pKi by item:
To interpret pKi, take it as minus log10 of a concentration measured in moles per litre.

[in] Can you share its pKi? I mean this compound: CC(O)CNC(=O)NC(=N)NCc1cccc2ccccc12 (stereo not drawn)
[out] 5.80

[in] Please report the recorded pKi for N=C(NCc1cccc2ccccc12)NC(=O)NCc1cccnc1 .
[out] 5.99

[in] Look up pKi for this compound: N=C(NCc1cccc2ccccc12)NC(=O)NCCc1ccc(N)cc1
[out] 6.05

Further cases:
[in] If you can, please state the reported pKi value of Cc1ccc(CN2CCC(CNC(=O)NC(=N)NCc3cccc4ccccc34)CC2)cc1 .
[out] 5.72

[in] Consider the compound shown here: N=C(NCc1cccc2ccccc12)NC(=O)NCc1cccs1 What is its recorded pKi?
[out] 6.27

[in] Fill blank: measured pKi of the compound N=C(NCc1cccc2ccccc12)NC(=O)NCc1cccc(CN)c1 is ____.
[out] 6.32

[in] Would you mind telling me what pKi value was observed for N=C(NCc1cccc2ccccc12)NC(=O)NC1CCc2ccccc21 (stereo not drawn) ?
[out] 5.66

[in] Using the record for N=C(NCc1cccc2ccccc12)NC(=O)NCC1CCN(Cc2ccccc2)CC1 , report its pKi.
[out] 5.64

[in] I would be grateful if you could share the reported pKi for N=C(NCc1cccc2ccccc12)NC(=O)NC1CCN(Cc2ccccc2)CC1 .
[out] 5.98

[in] Returns the measured pKi for the input compound. Input: N=C(NCc1cccc2ccccc12)NC(=O)N1CCN(C/C=C/c2ccccc2)CC1
[out] 6.09

[in] Which value of pKi has been reported for CC(=O)Nc1ccc(NC(=O)NC(=N)NCc2cccc3ccccc23)cc1 in the records?
[out] 5.75

[in] # query: pKi of entry N=C(NCc1cccc2ccccc12)NC(=O)N[C@H](CO)c1ccccc1
[out] 6.54

[in] Find the recorded pKi belonging to CC(C)(CO)CNC(=O)NC(=N)NCc1cccc2ccccc12 and report it.
[out] 5.77

[in] Consider the compound shown here: N=C(NCc1cccc2ccccc12)NC(=O)NC1CCCc2ccccc21 (stereo not drawn) What is its recorded pKi?
[out] 5.77

[in] Find the recorded pKi belonging to Cc1cc(C)cc(CN2CCC(CNC(=O)NC(=N)NCc3cccc4ccccc34)CC2)c1 and report it.
[out] 6.31

[in] For the compound N=C(NCc1cccc2ccccc12)NC(=O)N1CCN(Cc2ccccc2)CC1 , what pKi is on record?
[out] 6.11

[in] Which pKi reading was recorded for the compound CC(=O)Nc1ccc(CN2CCC(CNC(=O)NC(=N)NCc3cccc4ccccc34)CC2)cc1 ?
[out] 5.61
